test: Rat brain penetration study; assay type: in vivo, male Han Wistar rats; conditions: male, Han Wistar, brain, intravenous, 5 mg free base/kg, 1b 5 mg/kg i.v., 15 min, single rats, read-out: In brain, prodrug 1b
readout type: concentration at 15 min (ng/g)
Field format: number, assumed ng/g, no unit text.

Read off the recorded concentration at 15 min for CCOC(=O)CN1C(=O)COc2cc(C)c(Cl)c(C)c21 829

###

Listed here: items and their measured efflux ratio at 1 h, 10 µM.
tested on: MDR1 (P-glycoprotein); test: in vitro; type: in vitro ADME, canine; conditions: dog, pH 7.4; MDR1 MDCK, Papp B>A / Papp A>B
API note: the answer field is a bare number with no unit suffix.

Example entries and their recorded answers appear below.
[[record]]
molecule = "CC(CSc1ccc(Cl)cc1)C(=O)O (stereo not shown)"
readout_type = "efflux ratio at 1 h, 10 µM"
value_reported = 0.81

[[record]]
molecule = "Cn1c(C(=O)N[C@@H](C(=O)O)c2ccccc2)cc2cc(F)ccc21"
readout_type = "efflux ratio at 1 h, 10 µM"
value_reported = 0.88

[[record]]
molecule = "CC(C)NCC(O)COc1cccc2ccccc12 (stereo not shown) [Propranolol, reference compound]"
readout_type = "efflux ratio at 1 h, 10 µM"
value_reported = 0.72


Give me measured efflux ratio at 1 h, 10 µM, please, for this molecule: Oc1ccc(-c2csc3nc(-c4ccccc4)nn23)c(O)c1 1.5

###

experiment: in vitro; type: in vitro ADME, canine; details: dog, pH 7.4; wild type MDCK, Papp B>A / Papp A>B
readout type: efflux ratio at 1 h, 10 µM

[[record]]
compound = "Cn1c(C(=O)N[C@@H](C(=O)O)c2ccccc2)cc2cc(F)ccc21 [compound 5]"
readout_type = "efflux ratio at 1 h, 10 µM"
value_reported = 0.62

[[record]]
compound = "CC(C)NCC(O)COc1cccc2ccccc12 (stereo not shown) [Propranolol, reference compound]"
readout_type = "efflux ratio at 1 h, 10 µM"
value_reported = 0.56

[[record]]
compound = "Oc1ccc(-c2csc3nc(-c4ccccc4)nn23)c(O)c1 [compound 3]"
readout_type = "efflux ratio at 1 h, 10 µM"
value_reported = 0.89


Quote efflux ratio at 1 h, 10 µM reported for CC(CSc1ccc(Cl)cc1)C(=O)O (stereo not shown) [compound 6] please. 1.36

###

Assay: in vitro
Assay type: in vitro ADME, canine
Conditions: dog, MDCK, pH 7.4, wild type MDCK; read-out: Recovery A>B Mean
Protocol: internal standard at each timepoint. […] including an analytical internal standard. Apparent permeability (Papp) values were determined from the relationship: […] Efflux ratios (Papp B>A / Papp A>B) were calculated for each compound from the […] order to confirm the involvement of MDR1 in any efflux seen, an “ef fective efflux ratio” (EER) was calculated by comparing compound efflux ratios (ER) in the two cell types, i.e. EER = ER (MDR1-MDCK)/ ER (wild-type MDCK). […]
readout type: recovery at 1 h, 10 µM (%)
All answers are understood in %, so give the number only.

[[record]]
compound = "CC(C)NCC(O)COc1cccc2ccccc12 (stereo not drawn) [Propranolol, reference compound]"
value_reported = 91

[[record]]
compound = "Cc1cc2c(c(C)c1Cl)N(CC(=O)O)C(=O)CO2"
value_reported = 93.5


In the following, a different compound is considered.
Consider the compound CC(CSc1ccc(Cl)cc1)C(=O)O (stereo not drawn) and give its recorded recovery at 1 h, 10 µM. 66
